Reference source for all entries: the kinase profiling compilation of Christmann-Franck et al. (2016)

Tested On: STK32B (human)
Experimental Details: split-luciferase competition binding
Measurement Setup: compound 10.0 µM
Observable: inhibition (%)
Answers are plain numbers, in %.

Before answering, review these 6 worked examples.
CC(=O)c1c(O)c(C)c(O)c(Cc2c(O)c3c(c(C(=O)/C=C/c4ccccc4)c2O)OC(C)(C)C=C3)c1O
23
N#C/C(=C\c1ccc(O)c(O)c1)C(N)=S
1
CC(C)N(CCC(=O)c1ccc2ccccc2c1)Cc1ccccc1
0
C/C(O)=C(\C#N)C(=O)Nc1cc(Br)ccc1Br
0
O=C1NC(=O)c2c1c1c3ccccc3n3c1c1c2c2ccccc2n1C1CCC3O1
12
O=c1cc(N2CCOCC2)nc2c3ccccc3ccn12
0

Param readout = inhibition; param system = STK32B (human); param query = CC1=C(O)C(=O)[C@@H]2OC2C1=O (some centres not stated) ; response: value 36

* * *

Tested On: AURKA (human) (UniProt O14965)
Sequence (O14965 whole entry, looked up): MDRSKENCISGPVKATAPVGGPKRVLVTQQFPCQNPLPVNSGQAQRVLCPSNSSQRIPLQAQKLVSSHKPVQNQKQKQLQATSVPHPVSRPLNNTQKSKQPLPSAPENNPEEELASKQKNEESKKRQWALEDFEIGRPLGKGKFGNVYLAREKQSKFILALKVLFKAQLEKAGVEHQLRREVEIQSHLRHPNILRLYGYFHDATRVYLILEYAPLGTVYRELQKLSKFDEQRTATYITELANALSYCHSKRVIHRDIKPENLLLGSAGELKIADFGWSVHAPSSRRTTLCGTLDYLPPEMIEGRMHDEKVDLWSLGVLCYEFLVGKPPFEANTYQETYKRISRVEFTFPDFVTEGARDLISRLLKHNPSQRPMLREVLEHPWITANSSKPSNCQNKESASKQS
Experimental Details: split-luciferase competition binding
Measurement Setup: compound 10.0 µM
So I've got a bunch of compounds here, and I need their inhibition values.
Numbers only, in %.

Before answering, review these 5 worked examples.
COc1cc(CC2C(=O)OC[C@@H]2Cc2ccc(OC)c(OC)c2)ccc1O (some centres not stated)
11
CN(C)CCCn1cc(C2=C(c3c[nH]c4ccccc34)C(=O)NC2=O)c2ccccc21
2
O=C(c1ccc(Nc2nccc(-c3cc4ccccc4s3)n2)cc1)N1CCC(N2CCCC2)CC1
19
Brc1c(Br)c(Br)c2[nH]nnc2c1Br
6
N#C/C(=C\c1ccc(O)c(O)c1)C(=O)NCc1ccccc1
0

Provide inhibition values for the following items, in order.
1. O=C(Nc1cc(C(F)(F)F)cc(C(F)(F)F)c1)c1cc(Cl)ccc1O
2. C/C(O)=C(\C#N)C(=O)Nc1cc(Br)ccc1Br

1: 0; 2: 0

* * *

Tested On: DMPK (human)
Experimental Details: split-luciferase competition binding
Measurement Setup: compound 10.0 µM
So I've got a bunch of compounds here, and I need their inhibition values.
Give bare numbers, in %.

Before answering, review these 3 worked examples.
CC1=C(O)C(=O)[C@@H]2OC2C1=O (some centres undefined)
0
Brc1c(Br)c(Br)c2[nH]nnc2c1Br
0
COc1cc2ncnc(Nc3ccc(Cl)cc3F)c2cc1OC
0

From here, focus on the item given below.
Form field: reported inhibition of O=S(=O)(c1cccc2c(Cl)cccc12)N1CCCNCC1 0

* * *

So I've got a bunch of molecules here, and I need their inhibition values.
Tested On: PRKACB (human)
Experimental Details: split-luciferase competition binding
Measurement Setup: compound 10.0 µM
One number for each entry, in %.

COc1cc2ncn(-c3cc(OCc4ccccc4C(F)(F)F)c(C(N)=O)s3)c2cc1OC
12

Provide inhibition values for the following items, in order.
1. O=C1c2ccccc2-c2n[nH]c3cccc1c23
2. COc1nccc(-c2c(-c3ccc(F)cc3)ncn2[C@H]2CC[C@H](O)CC2)n1
3. CC(C)[C@H](CO)Nc1nc(Nc2ccc(C(=O)O)c(Cl)c2)c2ncn(C(C)C)c2n1
4. CC(C)[C@H](CO)Nc1nc(Nc2cccc(Cl)c2)c2ncn(C(C)C)c2n1
5. C/C(O)=C(\C#N)C(=O)Nc1cc(Br)ccc1Br
6. Cc1[nH]c(/C=C2\C(=O)Nc3ccc(S(=O)(=O)Cc4c(Cl)cccc4Cl)cc32)c(C)c1C(=O)N1CCC[C@@H]1CN1CCCC1
7. O=c1cc(N2CCOCC2)oc2c1ccc1ccccc12
8. CCN(CC)CCNC(=O)c1c(C)[nH]c(/C=C2\C(=O)Nc3ccc(F)cc32)c1C

1: 0; 2: 1; 3: 3; 4: 0; 5: 0; 6: 13; 7: 0; 8: 0

Provide inhibition values for the following items, in order.
1. CN1CCC(Nc2ncc3ncnc(Nc4ccc(F)c(Cl)c4)c3n2)CC1
2. O=S(=O)(NCCNC/C=C/c1ccc(Br)cc1)c1cccc2cnccc12
3. N#C/C(=C(/N)Sc1ccc(N)cc1)c1ccccc1C(F)(F)F

1: 0; 2: 75; 3: 0
